System: Klebsiella pneumoniae
Assay: MIC/MBC of nanoemulsions against gram-negative isolates (CLSI, alamar blue)
Format: cell-based
Details: Klebsiella pneumoniae (n = 5)
Recorded % susceptible for the following compounds
Supply the numeric figure in %, leaving out any unit text.

Solved cases below.
NC[C@H]1O[C@H](O[C@H]2[C@H](O)[C@@H](O[C@H]3O[C@H](CO)[C@@H](O)[C@H](N)[C@H]3O)[C@H](N)C[C@@H]2N)[C@H](N)C[C@@H]1O    80.0
CO/N=C(\C(=O)N[C@@H]1C(=O)N2C(C(=O)[O-])=C(C[N+]3(C)CCCC3)CS[C@H]12)c1csc(N)n1 [Cefepime]    80.0
C[C@H]1COc2c(N3CCN(C)CC3)c(F)cc3c(=O)c(C(=O)O)cn1c23    80.0
CN(C)[C@@H]1C(O)=C(C(N)=O)C(=O)[C@@]2(O)C(O)=C3C(=O)c4c(O)cccc4[C@@](C)(O)[C@H]3C[C@@H]12    100.0
CC(C)(O/N=C(\C(=O)N[C@@H]1C(=O)N2C(C(=O)[O-])=C(C[n+]3ccccc3)CS[C@H]12)c1csc(N)n1)C(=O)O    80.0

Turning now to a further compound:
Given C[C@@H](O)[C@H]1C(=O)N2C(C(=O)O)=C(SCCN=CN)C[C@H]12 , report its % susceptible on Klebsiella pneumoniae.
100.0

---

Test system: Acinetobacter baumannii
Assay: MIC/MBC against clinical isolates (CLSI, alamar blue)
Conditions: Acinetobacter baumannii, Acinetobacter isolate NB38
Recorded MBC for the following molecules

CC(C)(O/N=C(\C(=O)N[C@@H]1C(=O)N2C(C(=O)[O-])=C(C[n+]3ccccc3)CS[C@H]12)c1csc(N)n1)C(=O)O [Ceftazidime]    > 32 µg/mL
CO/N=C(\C(=O)N[C@@H]1C(=O)N2C(C(=O)[O-])=C(C[N+]3(C)CCCC3)CS[C@H]12)c1csc(N)n1 [Cefepime]    > 32 µg/mL

Give the reported MBC for this molecule. C[C@H]1COc2c(N3CCN(C)CC3)c(F)cc3c(=O)c(C(=O)O)cn1c23 [Levofloxacin]
> 16 µg/mL

Give the reported MBC for this molecule. CO[C@@]1(NC(=O)Cc2cccs2)C(=O)N2C(C(=O)O)=C(COC(N)=O)CS[C@@H]21 [Cefoxitin]
> 256 µg/mL

Give the reported MBC for this molecule. NC[C@H]1O[C@H](O[C@H]2[C@H](O)[C@@H](O[C@H]3O[C@H](CO)[C@@H](O)[C@H](N)[C@H]3O)[C@H](N)C[C@@H]2N)[C@H](N)C[C@@H]1O [Tobramycin]
16 µg/mL

---

Recorded MIC for the following molecules
System: Pseudomonas aeruginosa
Assay: MIC/MBC against CF isolates (CLSI, alamar blue)
Details: Pseudomonas aeruginosa, CF Pseudomonas isolate NB5
Supply the numeric figure in µg/mL, leaving out any unit text.

Solved cases below.
NC[C@H]1O[C@H](O[C@H]2[C@H](O)[C@@H](O[C@H]3O[C@H](CO)[C@@H](O)[C@H](N)[C@H]3O)[C@H](N)C[C@@H]2N)[C@H](N)C[C@@H]1O    0.5
C[C@@H](O)[C@H]1C(=O)N2C(C(=O)O)=C(SCCN=CN)C[C@H]12    2

Turning now to a further molecule:
Give the reported MIC for this molecule. C[C@H]1COc2c(N3CCN(C)CC3)c(F)cc3c(=O)c(C(=O)O)cn1c23
0.5

These measurements were taken from patent US20100092526A1.
